# subject of test: human ether-à-go-go-related gene (hERG) potassium channel (human)
# test summary: primary screen, population patch clamp on CHO cells stably expressing hERG; higher = less effect of the substance
About 2,200 (0.71%) of roughly 310,000 compounds showed an effect of 50% or more. Effects have a minus sign here. What follows is part of a selection rich in strong results, with near analogues and random picks from the rest.
Known hERG current change (%, negative = inhibition) at 1uM of a selection of molecules
Expressed in %, but write only the number.

Query hERG current change (%, negative = inhibition) at 1uM for `O=C(CCN1CCCCC1)Nc1ccc(Cl)cc1C(=O)c1ccccc1` -42.9

Query hERG current change (%, negative = inhibition) at 1uM for `CCN(CC(=O)NCc1ccc(F)cc1)C(=O)CN1CCN(c2ccccc2OC)CC1` -44.4

Query hERG current change (%, negative = inhibition) at 1uM for `CCN(CC(=O)NCc1ccc(F)cc1)C(=O)CN1CCN(c2cc(Cl)ccc2C)CC1` -68.2

Query hERG current change (%, negative = inhibition) at 1uM for `O=C(CSc1nnc(-c2ccco2)o1)N1c2ccccc2CCc2ccccc21` 9.21

Query hERG current change (%, negative = inhibition) at 1uM for `Cc1cccn2c(=O)c3cc(C(=O)NCc4ccco4)c(=N)n(CCOCCO)c3nc12` -63.3

Query hERG current change (%, negative = inhibition) at 1uM for `COc1ccc2[nH]c(C)c(CCN(Cc3cccs3)C(=S)Nc3ccccc3)c2c1` 6.37

Query hERG current change (%, negative = inhibition) at 1uM for `Cc1cccn2c(=O)c3cc(C(=O)NCc4ccco4)c(=N)n(CCc4ccccc4)c3nc12` -82.2

Query hERG current change (%, negative = inhibition) at 1uM for `O=C(CN1CCN(CCO)CC1)Nc1ccc(Cl)cc1C(=O)c1ccccc1` -80.7

# context switch: different molecule, same hERG current change (%, negative = inhibition) at 1uM
Query hERG current change (%, negative = inhibition) at 1uM for `Cc1cccn2c(=O)c3cc(S(=O)(=O)c4ccccc4)c(=N)n(Cc4ccco4)c3nc12` 5.3

###

Known hERG current change (%, negative = inhibition) at 1uM of a selection of molecules
# subject of test: human ether-à-go-go-related gene (hERG) potassium channel (human, UniProt Q12809)
# Sequence (Q12809 whole entry, looked up): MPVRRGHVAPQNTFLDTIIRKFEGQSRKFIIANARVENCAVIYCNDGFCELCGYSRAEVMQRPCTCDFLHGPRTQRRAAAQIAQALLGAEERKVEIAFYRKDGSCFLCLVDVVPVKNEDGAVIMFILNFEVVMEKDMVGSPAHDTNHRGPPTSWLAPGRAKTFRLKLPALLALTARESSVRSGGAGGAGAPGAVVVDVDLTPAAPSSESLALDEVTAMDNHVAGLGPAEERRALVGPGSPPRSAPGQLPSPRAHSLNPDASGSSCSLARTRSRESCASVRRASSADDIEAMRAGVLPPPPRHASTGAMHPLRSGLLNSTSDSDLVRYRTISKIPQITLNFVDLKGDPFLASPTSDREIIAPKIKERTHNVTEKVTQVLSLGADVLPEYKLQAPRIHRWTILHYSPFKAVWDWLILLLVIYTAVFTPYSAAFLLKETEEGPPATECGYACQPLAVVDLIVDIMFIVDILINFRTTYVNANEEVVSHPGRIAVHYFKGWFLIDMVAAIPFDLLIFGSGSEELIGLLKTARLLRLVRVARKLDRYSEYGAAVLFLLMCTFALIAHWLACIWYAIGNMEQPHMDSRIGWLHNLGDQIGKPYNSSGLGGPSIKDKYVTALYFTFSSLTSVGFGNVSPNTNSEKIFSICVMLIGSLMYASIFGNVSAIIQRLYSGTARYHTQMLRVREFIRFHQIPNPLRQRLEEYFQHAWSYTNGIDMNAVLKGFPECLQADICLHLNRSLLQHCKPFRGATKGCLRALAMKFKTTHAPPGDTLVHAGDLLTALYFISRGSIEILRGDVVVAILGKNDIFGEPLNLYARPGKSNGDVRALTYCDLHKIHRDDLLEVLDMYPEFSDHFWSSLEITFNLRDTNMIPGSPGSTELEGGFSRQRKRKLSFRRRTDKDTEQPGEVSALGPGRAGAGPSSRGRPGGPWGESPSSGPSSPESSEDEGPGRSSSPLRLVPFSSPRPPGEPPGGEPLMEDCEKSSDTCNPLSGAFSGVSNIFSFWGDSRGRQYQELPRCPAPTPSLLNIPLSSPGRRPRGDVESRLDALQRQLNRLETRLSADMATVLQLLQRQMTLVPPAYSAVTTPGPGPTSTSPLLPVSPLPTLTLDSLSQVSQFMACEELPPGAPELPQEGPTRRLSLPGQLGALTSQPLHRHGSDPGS
# test summary: primary screen, population patch clamp on CHO cells stably expressing hERG; higher = less effect of the substance
# Text: Briefly, Chinese hamster ovary (CHO) cells stably expressing the hERG channel were dislodged from tissue culture flasks and dispensed into PPC plates. […] Small molecule effects on hERG current density were quantified by […].
About 2,200 (0.71%) of roughly 310,000 compounds showed an effect of 50% or more. Effects have a minus sign here. This is one part of a sample in which strong results are shown more often than they occur.
Expressed in %, but write only the number.

Known hERG current change (%, negative = inhibition) at 1uM results, listed for orientation:
Query hERG current change (%, negative = inhibition) at 1uM for `COc1ccc(Cl)cc1N(C)C(=O)CCNC(=O)Cn1cnc2ccccc2c1=O` 11.2

Query hERG current change (%, negative = inhibition) at 1uM for `Cc1ccc(S(=O)(=O)Nc2ccc3c(c2)nc(CCN2CCN(c4ccccn4)CC2)n3C)cc1` -80.7

Query hERG current change (%, negative = inhibition) at 1uM for `Cc1ccc(CNS(=O)(=O)/C=C/c2ccc3c(c2)OCO3)cc1` -0.964

Query hERG current change (%, negative = inhibition) at 1uM for `CC(C)C(=O)Nc1ccc2c(c1)nc(CCN1CCN(c3ccccn3)CC1)n2C` 6.24

Query hERG current change (%, negative = inhibition) at 1uM for `CC(=O)Nc1ccc2c(c1)nc(CCN1CCN(c3ccccn3)CC1)n2C` 12

Query hERG current change (%, negative = inhibition) at 1uM for `Cn1c(CCN2CCN(c3ccccn3)CC2)nc2cc(NS(=O)(=O)c3ccc(Cl)cc3)ccc21` -69.2

Query hERG current change (%, negative = inhibition) at 1uM for `O=S(=O)(Nc1nc(-c2ccccc2)cs1)c1cccc(C(F)(F)F)c1` 10.5

Query hERG current change (%, negative = inhibition) at 1uM for CN1CSC2=C(C#N)C(c3cccc(OCc4ccccc4)c3)CC(=O)N2C1 (stereo not drawn) 4.22

# context switch: different molecule, same hERG current change (%, negative = inhibition) at 1uM
Query hERG current change (%, negative = inhibition) at 1uM for Cc1cccc(C2c3[nH]c4ccccc4c3CCN2C(=O)c2cc(CC(C)C)nc(C)n2)n1 (stereo not drawn) 14
